Give measured Kd for each item. Keep answers brief.
Target: Receptor-interacting serine/threonine-protein kinase 1 (Homo sapiens)
Sequence (Q13546 whole entry): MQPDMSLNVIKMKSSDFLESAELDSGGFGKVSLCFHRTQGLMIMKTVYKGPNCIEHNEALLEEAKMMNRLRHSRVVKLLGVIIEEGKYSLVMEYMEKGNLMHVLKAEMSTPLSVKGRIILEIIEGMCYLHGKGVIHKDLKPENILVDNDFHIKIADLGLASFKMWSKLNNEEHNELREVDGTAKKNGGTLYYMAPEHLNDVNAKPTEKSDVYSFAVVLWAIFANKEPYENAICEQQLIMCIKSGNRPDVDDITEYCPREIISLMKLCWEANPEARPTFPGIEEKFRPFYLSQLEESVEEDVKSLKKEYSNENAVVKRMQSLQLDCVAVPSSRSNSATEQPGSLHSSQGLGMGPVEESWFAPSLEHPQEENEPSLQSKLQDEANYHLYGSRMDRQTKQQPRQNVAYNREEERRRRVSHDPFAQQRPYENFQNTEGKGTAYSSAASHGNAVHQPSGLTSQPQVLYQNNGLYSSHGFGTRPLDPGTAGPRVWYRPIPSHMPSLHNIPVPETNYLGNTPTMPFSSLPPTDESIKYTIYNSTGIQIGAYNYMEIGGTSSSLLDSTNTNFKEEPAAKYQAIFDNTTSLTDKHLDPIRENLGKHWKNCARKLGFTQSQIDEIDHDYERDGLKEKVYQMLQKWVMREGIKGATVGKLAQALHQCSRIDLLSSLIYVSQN
One number for each entry, in nM.

{"compound": "CCOCC(=O)NC1CCC(C(=O)Nc2nc3cc(F)c(Oc4ccc(F)c(NC(=O)Cc5cccc(C(F)(F)F)c5)c4)cc3s2)CC1 (configuration not stated)", "dataValue": 15}

The record that follows has no Kd shown yet.
Kd in this record for CCS(=O)(=O)NC1CCC(C(=O)Nc2nc3cc(F)c(Oc4ccc(F)c(NC(=O)Cc5cccc(C(F)(F)F)c5)c4)cc3s2)CC1 (configuration not stated) : 85
